Data credit: paper PMC11850223

ASSAY_SYSTEM: T1, cis-heterodimer Hera/Hera_208-419 (Thermus thermophilus, UniProt O07897;O07897 1-510;208-419)
T1 sequence 1: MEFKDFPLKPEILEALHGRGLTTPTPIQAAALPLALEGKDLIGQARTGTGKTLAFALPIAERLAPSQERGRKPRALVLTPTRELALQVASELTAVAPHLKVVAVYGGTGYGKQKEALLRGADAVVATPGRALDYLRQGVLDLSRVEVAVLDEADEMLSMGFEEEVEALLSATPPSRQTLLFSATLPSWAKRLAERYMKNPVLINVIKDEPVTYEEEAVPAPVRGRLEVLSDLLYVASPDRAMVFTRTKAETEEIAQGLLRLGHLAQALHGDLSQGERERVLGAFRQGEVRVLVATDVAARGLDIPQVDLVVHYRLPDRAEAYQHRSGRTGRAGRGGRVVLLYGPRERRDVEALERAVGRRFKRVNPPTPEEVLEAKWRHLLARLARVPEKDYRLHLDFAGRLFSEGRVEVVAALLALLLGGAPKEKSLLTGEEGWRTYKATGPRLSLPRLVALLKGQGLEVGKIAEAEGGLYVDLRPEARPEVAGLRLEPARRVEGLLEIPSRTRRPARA
T1 sequence 2: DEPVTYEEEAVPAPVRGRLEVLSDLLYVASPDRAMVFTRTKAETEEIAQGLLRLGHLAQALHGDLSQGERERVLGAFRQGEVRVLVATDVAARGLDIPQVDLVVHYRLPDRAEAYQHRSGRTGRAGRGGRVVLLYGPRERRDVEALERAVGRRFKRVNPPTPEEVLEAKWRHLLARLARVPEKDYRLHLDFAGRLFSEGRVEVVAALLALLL
ASSAY_NOTES: stopped-flow fluorescence
QUANTITY: pKd
To interpret pKd, take it as minus log10 of a concentration measured in moles per litre.

Task: Note pKd for the binder shown: fl-32/9mer (structured_RNA) RNA 1: GCAGGUCCCAAGGGUUGGGCUGUUCGCCCAUU RNA 2: UUGGGACCU
Result: 5.74
